// reported Kd for each item listed
- tgt: T1, recombinant human EphA5 (rhEphA5) antigen (human, UniProt P54756 25-573)
- T1 construct: also called human EphA5 (R and D systems, Cat. No. 3036-A5); recombinant EphA5
- experimentNotes: SPR single-cycle kinetics (Biacore T200), IgG from HEK supernatant captured on anti-human IgG CM5 chip, rhEphA5 as analyte, 1:1 fit
Supply the numeric figure in nM, leaving out any unit text.

Below are worked cases with known answers.
binder	Kd / nM
VH4/VK5 humanized 11C12 antibody (antibody, human IgG1, kappa, V domains shown, Human IgG1/kappa; tested as HEK293 EBNA supernatant; also called H4K5) VH: EVQLVESGGGLVQPGGSLKLSCAASGFTFSTFGIHWVRQAPGKGLEWVAYISGASTTIYYADTVKGRFTISRDNSKNTLYLQMNSLRAEDTAVYYCARYGTSFPYGLDYWGQGTLVTVSS VL: DIVMTQSPDSLAVSLGERATINCKSSQSVDYDGDSYMNWYQQKPGKAPKLLIYGASNLESGIPDRFSGSGSGTDFTLTISRLEPEDAAVYYCQQSNEDPFTFGQGTKLEIKR	0.996
VH4/VK4 humanized 11C12 antibody (antibody, human IgG1, kappa, V domains shown, Human IgG1/kappa; lead variant, tested as HEK supernatant and as protein purified from CHO; also called H4K4) VH: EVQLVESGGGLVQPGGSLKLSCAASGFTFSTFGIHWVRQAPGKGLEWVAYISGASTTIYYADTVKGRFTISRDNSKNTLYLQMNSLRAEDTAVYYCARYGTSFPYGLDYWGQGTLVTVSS VL: DIVMTQSPDSLAVSLGERATINCKSSQSVDYDGDSYMNWYQQKPGKAPKLLIYGASNLESGIPDRFSGSGSGTDFTLTISRLEPEDAASYYCQQSNEDPFTFGQGTKLEIKR	1.05

Now consider a different binder.
Exam item: Assign Kd to the following record: VH5/VK5 humanized 11C12 antibody (antibody, human IgG1, kappa, V domains shown, Human IgG1/kappa; tested as HEK293 EBNA supernatant; also called H5K5) VH: EVQLVESGGGLVQPGGSLKLSCAASGFTFSTFGIHWVRQAPGKGLEWVAYISGASTTIYYADSVKGRFTISRDNSKNTLYLQMNSLRAEDTAVYYCARYGTSFPYGLDYWGQGTLVTVSS VL: DIVMTQSPDSLAVSLGERATINCKSSQSVDYDGDSYMNWYQQKPGKAPKLLIYGASNLESGIPDRFSGSGSGTDFTLTISRLEPEDAAVYYCQQSNEDPFTFGQGTKLEIKR
Marked response: 1.03
